Assay: Solubility evaluation in distilled water and at several pH values
Conditions: 37 °C, pH 4, aqueous buffer, thermodynamic from solid
Structures can show the parent of a compound that is named as a salt.
resultType: solubility (µg/mL)
Answer in µg/mL, number only, no unit symbol.

Ask: Field request: solubility | item: CC(C)CC(N(C)C)C1(c2ccc(Cl)cc2)CCC1 (stereo not shown) [Sibutramine HCl monohydrate, Sibutramine hydrochloride monohydrate, reference compound]
Result: 9580

====

Assay: Solubility evaluation in distilled water and at several pH values
Conditions: 37 °C, pH 7.4, aqueous buffer, thermodynamic from solid
Where a name gives a salt, the structure may show the parent alone.
resultType: solubility
In your response, the unit should come after the numeric value.

Ask: Request the reported solubility associated with CC(C)CC(N(C)C)C1(c2ccc(Cl)cc2)CCC1 (stereo not shown) [Sibutramine HCl monohydrate, Sibutramine hydrochloride monohydrate, reference compound]
Result: 9200 µg/mL

Data provenance: patent US7393977B2
